# Measurement Protocol: Pharmacokinetics of MNTX in rat plasma after oral gavage (LC/MS/MS)
# Reported Conditions: male, Sprague-Dawley, in vivo, 250 mg/kg, Second peak Cmax, rats, 250 mg/kg oral, second plasma peak, n=5, mean
Quantity Measured: Cmax
Report field: quantity (unit follows the number).

q: // Cmax lookup, key: C[N+]1(CC2CC2)CCC23c4c5ccc(O)c4OC2C(=O)CCC3(O)C1C5 (stereo not shown) [MNTX, methylnaltrexone bromide]
a: 448 ng/mL

###

# Measurement Protocol: Pharmacokinetics of MNTX in rat plasma after oral gavage (LC/MS/MS)
# Reported Conditions: male, Sprague-Dawley, in vivo, 250 mg/kg, AUC0-540 min, rats, 250 mg/kg oral, 0 to 540 min, mean±S.E.
Quantity Measured: AUC(0-t) (ng·h/mL)
Kindly provide the numeric value in ng·h/mL only, without the unit symbol.

q: Could you share which AUC(0-t) value was measured for C[N+]1(CC2CC2)CCC23c4c5ccc(O)c4OC2C(=O)CCC3(O)C1C5 (stereo not shown) [MNTX, methylnaltrexone bromide] ?
a: 1410

###

# Measurement Protocol: Pharmacokinetics of MNTX in rat plasma after oral gavage (LC/MS/MS)
# Reported Conditions: male, Sprague-Dawley, in vivo, 250 mg/kg, First peak AUC0-150 min, rats, 250 mg/kg oral, 0 to 150 min, n=5, mean
Quantity Measured: AUC(0-t) (ng·h/mL)
Output spec: scalar in ng·h/mL, unitless text.

q: Sample C[N+]1(CC2CC2)CCC23c4c5ccc(O)c4OC2C(=O)CCC3(O)C1C5 (stereo not shown) [MNTX, methylnaltrexone bromide] — what was its AUC(0-t)?
a: 341

###

# Measurement Protocol: Pharmacokinetics of MNTX in rat plasma after oral gavage (LC/MS/MS)
# Reported Conditions: male, Sprague-Dawley, in vivo, 250 mg/kg, Second peak Tmax, rats, 250 mg/kg oral, second plasma peak
Quantity Measured: Tmax (h)
Please give a number only; it is taken to be in h.

q: Name the recorded Tmax for C[N+]1(CC2CC2)CCC23c4c5ccc(O)c4OC2C(=O)CCC3(O)C1C5 (stereo not shown) [MNTX, methylnaltrexone bromide] .
a: 3

###

# Measurement Protocol: Pharmacokinetics of MNTX in rat plasma after oral gavage (LC/MS/MS)
# Reported Conditions: male, Sprague-Dawley, in vivo, 250 mg/kg, First peak Cmax, rats, 250 mg/kg oral, first plasma peak, n=5, mean
Quantity Measured: Cmax
Please make sure the unit comes right after the number.

q: Look up Cmax for this compound: C[N+]1(CC2CC2)CCC23c4c5ccc(O)c4OC2C(=O)CCC3(O)C1C5 (stereo not shown) [MNTX, methylnaltrexone bromide]
a: 276 ng/mL

###

# Measurement Protocol: Pharmacokinetics of MNTX in rat plasma after oral gavage (LC/MS/MS)
# Reported Conditions: male, Sprague-Dawley, in vivo, 250 mg/kg
# Description: Animals, MNTX Administration, and Blood Collection. The experimental protocol was approved by the Institutional Animal Care and Use Committee. Male Sprague-Dawley rats (190-200 g) were obtained from Luye Pharma (Yantai, China) (Wang et al., 2010). […] The concentrations of MNTX in rat plasma samples were determined with LC/MS/MS. MNTX plasma levels and the internal standard determined by LC/MS/MS were tested at the time points listed above. […]
Quantity Measured: AUC
Could you kindly put the unit after your number?

q: Which AUC is reported for this compound? C[N+]1(CC2CC2)CCC23c4c5ccc(O)c4OC2C(=O)CCC3(O)C1C5 (stereo not shown) [MNTX, methylnaltrexone bromide]
a: 1060 ng·h/mL

Hey, just so you know, these numbers are from patent US20150190523A1.
